tested on: Escherichia coli; assay: Antibacterial activity against Escherichia coli ATCC 25922 after 18 to 20 hrs by broth microdilution method; format: functional
Non-standard residues stand in square brackets, D forms with d. Residues, ends and D or L forms follow the SMILES beside them. *: point of attachment. Decanoyl = CCCCCCCCCC(=O)*; Heptanoyl = CCCCCCC(=O)*; Octanoyl = CCCCCCCC(=O)*; Dab = NCC[C@H](N)C(=O)O; Cbz = O=C(OCc1ccccc1)*; Hexanoyl = CCCCCC(=O)*; Bz = O=C(c1ccccc1)*
Below: a set of entries, each annotated with reported MIC.
reportedMetric: MIC

compound | reportedMetric | experimentalResult
CCCCCCCC(=O)N[C@H](CCCN)C(=O)N[C@H](C(=O)N[C@@H](CCCN)C(=O)N[C@@H](Cc1ccccc1)C(=O)N[C@@H](CC(C)C)C(=O)N[C@@H](CCCN)C(=O)N[C@H](C(=O)N[C@@H](CC(C)C)C(=O)N[C@@H](CO)C(N)=O)C(C)C)[C@@H](C)CC | MIC | 32 µg/mL
CC[C@H](C)[C@H](NC(=O)[C@H](CCN)NC(=O)OCc1ccccc1)C(=O)N[C@@H](CCN)C(=O)N[C@H](Cc1ccccc1)C(=O)N[C@@H](CC(C)C)C(=O)N[C@@H](CCN)C(=O)N[C@@H](C(=O)N[C@@H](CC(C)C)C(=O)N[C@@H](CO)C(N)=O)C(C)C (Cbz-[Dab]I[Dab][dF]L[Dab][dV]LS-NH2) | MIC | 8 to 16 µg/mL
CCCCCCC(=O)N[C@@H](CCN)C(=O)N[C@H](C(=O)N[C@@H](CCN)C(=O)N[C@H](Cc1ccccc1)C(=O)N[C@@H](CC(C)C)C(=O)N[C@@H](CCN)C(=O)N[C@@H](C(=O)N[C@@H](CC(C)C)C(=O)N[C@@H](CO)C(N)=O)C(C)C)C(C)C (Heptanoyl-[Dab]V[Dab][dF]L[Dab][dV]LS-NH2) | MIC | 16 µg/mL
CCCCCCCC(=O)N[C@@H](CCN)C(=O)N[C@@H](CCN)C(=O)N[C@@H](CCN)C(=O)N[C@H](Cc1ccccc1)C(=O)N[C@@H](CC(C)C)C(=O)N[C@@H](CCN)C(=O)N[C@@H](C(=O)N[C@@H](CC(C)C)C(=O)N[C@@H](CCN)C(N)=O)C(C)C (Octanoyl-[Dab][Dab][Dab][dF]L[Dab][dV]L[Dab]-NH2) | MIC | > 32 µg/mL
CCCCCCCCCC(=O)N[C@@H](CCN)C(=O)N[C@H](C(=O)N[C@@H](CCN)C(=O)N[C@H](Cc1ccccc1)C(=O)N[C@@H](CC(C)C)C(=O)N[C@@H](CCN)C(=O)N[C@@H](C(=O)N[C@@H](CC(C)C)C(=O)N[C@@H](CO)C(N)=O)C(C)C)[C@@H](C)CC (Decanoyl-[Dab]I[Dab][dF]L[Dab][dV]LS-NH2) | MIC | 2 to 8 µg/mL
CCCCCC(=O)N[C@@H](CCN)C(=O)N[C@H](C(=O)N[C@@H](CCN)C(=O)N[C@H](Cc1ccccc1)C(=O)N[C@@H](CC(C)C)C(=O)N[C@@H](CCN)C(=O)N[C@@H](C(=O)N[C@@H](CC(C)C)C(=O)N[C@@H](CO)C(N)=O)C(C)C)[C@@H](C)CC (Hexanoyl-[Dab]I[Dab][dF]L[Dab][dV]LS-NH2) | MIC | 8 to 16 µg/mL
CCCCCCC(=O)N[C@@H](CCN)C(=O)N[C@H](C(=O)N[C@@H](CCN)C(=O)N[C@H](Cc1ccccc1)C(=O)N[C@@H](CC(C)C)C(=O)N[C@@H](CCN)C(=O)N[C@H](CC(C)C)C(=O)N[C@@H](CC(C)C)C(=O)N[C@@H](CO)C(N)=O)[C@@H](C)CC (Heptanoyl-[Dab]I[Dab][dF]L[Dab][dL]LS-NH2) | MIC | 1 to 4 µg/mL
CCCCCCC(=O)N[C@@H](CCN)C(=O)N[C@H](C(=O)N[C@@H](CCN)C(=O)N[C@H](Cc1ccccc1)C(=O)N[C@@H](CC(C)C)C(=O)N[C@@H](CCN)C(=O)N[C@@H](C(=O)N[C@@H](CC(C)C)C(=O)N[C@@H](CO)C(N)=O)C(C)C)[C@@H](C)CC (Heptanoyl-[Dab]I[Dab][dF]L[Dab][dV]LS-NH2) | MIC | 4 µg/mL
CC[C@H](C)[C@H](NC(=O)[C@H](CCN)NC(=O)c1ccccc1)C(=O)N[C@@H](CCN)C(=O)N[C@H](Cc1ccccc1)C(=O)N[C@@H](CC(C)C)C(=O)N[C@@H](CCN)C(=O)N[C@@H](C(=O)N[C@@H](CC(C)C)C(=O)N[C@@H](CO)C(N)=O)C(C)C (Bz-[Dab]I[Dab][dF]L[Dab][dV]LS-NH2) | MIC | 16 to 32 µg/mL
CCCCCCC(=O)N[C@@H](CCN)C(=O)N[C@@H](Cc1ccccc1)C(=O)N[C@@H](CCN)C(=O)N[C@H](Cc1ccccc1)C(=O)N[C@@H](CC(C)C)C(=O)N[C@@H](CCN)C(=O)N[C@@H](C(=O)N[C@@H](CC(C)C)C(=O)N[C@@H](CO)C(N)=O)C(C)C (Heptanoyl-[Dab]F[Dab][dF]L[Dab][dV]LS-NH2) | MIC | 1 to 4 µg/mL
CCCCCCCCCC(=O)N[C@@H](CCN)C(=O)N[C@H](C(=O)N[C@H](C(=O)N[C@H](CC(C)C)C(=O)N[C@@H](CC(C)C)C(=O)N[C@@H](CCN)C(=O)N[C@@H](C(=O)N[C@@H](CC(C)C)C(=O)N[C@@H](CO)C(N)=O)C(C)C)[C@@H](C)O)[C@@H](C)CC (Decanoyl-[Dab]IT[dL]L[Dab][dV]LS-NH2) | MIC | > 32 µg/mL
CCCCCCC(=O)N[C@@H](CCN)C(=O)N[C@@H](Cc1ccccc1)C(=O)N[C@@H](CCN)C(=O)N[C@H](Cc1ccccc1)C(=O)N[C@@H](CC(C)C)C(=O)N[C@@H](CCN)C(=O)N[C@H](CC(C)C)C(=O)N[C@@H](Cc1ccccc1)C(=O)N[C@@H](CO)C(N)=O (Heptanoyl-[Dab]F[Dab][dF]L[Dab][dL]FS-NH2) | MIC | 0.5 to 2 µg/mL
CCCCCCC(=O)N[C@@H](CCN)C(=O)N[C@@H](Cc1ccccc1)C(=O)N[C@@H](CCN)C(=O)N[C@H](Cc1ccccc1)C(=O)N[C@@H](CC(C)C)C(=O)N[C@@H](CCN)C(=O)N[C@H](CC(C)C)C(=O)N[C@@H](CC(C)C)C(=O)N[C@@H](CO)C(N)=O (Heptanoyl-[Dab]F[Dab][dF]L[Dab][dL]LS-NH2) | MIC | 1 to 4 µg/mL
